- Target: Vitamin D3 receptor (Homo sapiens, UniProt P11473)
- Sequence (P11473 whole entry): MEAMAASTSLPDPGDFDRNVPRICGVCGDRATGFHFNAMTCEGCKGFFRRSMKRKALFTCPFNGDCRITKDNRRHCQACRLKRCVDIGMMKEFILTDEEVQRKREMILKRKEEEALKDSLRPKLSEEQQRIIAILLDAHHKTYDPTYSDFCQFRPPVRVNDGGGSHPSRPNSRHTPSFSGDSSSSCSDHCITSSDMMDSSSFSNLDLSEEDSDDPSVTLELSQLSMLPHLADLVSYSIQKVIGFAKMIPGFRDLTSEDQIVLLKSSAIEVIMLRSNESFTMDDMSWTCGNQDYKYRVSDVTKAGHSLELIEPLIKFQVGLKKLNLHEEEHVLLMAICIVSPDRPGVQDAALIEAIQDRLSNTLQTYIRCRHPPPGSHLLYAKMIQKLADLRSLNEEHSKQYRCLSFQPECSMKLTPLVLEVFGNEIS
- Protocol Description: Antagonist activity at human VDR in HEK293 cells assessed as induction of transcriptional transactivation after 24 hrs by mouse osteopontin luciferase reporter gene assay
- Assay type: functional, cell-based
Property Label: IC50

{"columns": ["Smiles Input", "Property Label", "Result"],
 "data": [
  ["C=C1C[C@@H](C[C@@H](C)[C@H]2CC[C@H]3/C(=C/C=C4C[C@@H](O)C(=C)[C@H](O)C4)CCC[C@]23C)OC1=O", "IC50", "300 nM"]
]}

---

- Target: Vitamin D3 receptor (Homo sapiens, UniProt P11473)
- Protocol Description: Agonist activity at human VDR in HEK293 cells assessed as induction of transcriptional transactivation after 24 hrs by mouse osteopontin luciferase reporter gene assay
- Assay type: functional, cell-based
pEC50: −log10 of the molar value.
Each item that follows carries a reported pEC50.

{"columns": ["Smiles Input", "pEC50"],
 "data": [
  ["C=C1C[C@@H](C[C@@H](C)[C@H]2CC[C@H]3/C(=C/C=C4C[C@@H](O)C(=C)[C@H](O)C4)CCC[C@]23C)OC1=O", 6.70],
  ["C=C1C[C@@H](C[C@H](C)[C@H]2CC[C@H]3/C(=C/C=C4C[C@@H](O)C(=C)[C@H](O)C4)CCC[C@]23C)OC1=O", 7.70],
  ["C=C1C[C@H](C[C@@H](C)[C@H]2CC[C@H]3/C(=C/C=C4C[C@@H](O)C(=C)[C@H](O)C4)CCC[C@]23C)OC1=O", 9.00],
  ["C=C1C[C@H](C[C@H](C)[C@H]2CC[C@H]3/C(=C/C=C4C[C@@H](O)C(=C)[C@H](O)C4)CCC[C@]23C)OC1=O", 7.82]
]}

---

- Target: Vitamin D3 receptor (Rattus norvegicus, UniProt P13053)
- Sequence (P13053 whole entry, the tested form may be a part): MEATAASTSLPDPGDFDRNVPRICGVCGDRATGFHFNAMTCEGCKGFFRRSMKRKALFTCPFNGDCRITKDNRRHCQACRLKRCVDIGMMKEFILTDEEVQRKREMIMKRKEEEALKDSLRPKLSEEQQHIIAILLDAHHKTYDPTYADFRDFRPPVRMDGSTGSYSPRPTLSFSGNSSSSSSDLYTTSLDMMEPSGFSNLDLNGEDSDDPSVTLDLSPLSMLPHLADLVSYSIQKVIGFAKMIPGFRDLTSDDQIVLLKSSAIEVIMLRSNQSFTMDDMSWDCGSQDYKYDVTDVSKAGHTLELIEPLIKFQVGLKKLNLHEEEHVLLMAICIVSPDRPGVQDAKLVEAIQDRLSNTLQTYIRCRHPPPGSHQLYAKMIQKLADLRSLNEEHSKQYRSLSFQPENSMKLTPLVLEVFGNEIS
- Protocol Description: Displacement of [3H]1,25-(OH)2D3 from rat recombinant His-tagged VDR ligand-binding domain expressed in Escherichia coli BL21
Property Label: EC50 (nM)

{"columns": ["Smiles Input", "Target", "Quantitative Readout"],
 "data": [
  ["C=C1C[C@@H](C[C@H](C)[C@H]2CC[C@H]3/C(=C/C=C4C[C@@H](O)C(=C)[C@H](O)C4)CCC[C@]23C)OC1=O", "Vitamin D3 receptor (Rattus norvegicus, UniProt P13053)", 5],
  ["C=C1C[C@H](C[C@H](C)[C@H]2CC[C@H]3/C(=C/C=C4C[C@@H](O)C(=C)[C@H](O)C4)CCC[C@]23C)OC1=O", "Vitamin D3 receptor (Rattus norvegicus, UniProt P13053)", 5],
  ["C=C1C[C@@H](C[C@@H](C)[C@H]2CC[C@H]3/C(=C/C=C4C[C@@H](O)C(=C)[C@H](O)C4)CCC[C@]23C)OC1=O", "Vitamin D3 receptor (Rattus norvegicus, UniProt P13053)", 20],
  ["C=C1C[C@H](C[C@@H](C)[C@H]2CC[C@H]3/C(=C/C=C4C[C@@H](O)C(=C)[C@H](O)C4)CCC[C@]23C)OC1=O", "Vitamin D3 receptor (Rattus norvegicus, UniProt P13053)", 0.7]
]}
